Target: systemic lupus erythematosus autoantigen SSA
Experiment: AtheNA Multi-Lyte ANA, Ab at 12.5 ug/ml;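 also: monoclonal antibodies screened for binding to a panel of nuclear autoantigens (SSA, SSB, Sm, RNP, Scl-70, Jo-1, dsDNA, CentB, histones), with anti-HIV and anti-RSV antibodies as controls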
reported_endpoint: AtheNA signal
// response body must contain only the number

Which AtheNA signal is listed for Ab7961/293i (antibody, IgG1, V domains shown, Recombinant human antibody with IgG1 heavy chain backbone and kappa light chain constant; they begin at LVESGGG and MTQSP; also called mAb 7961; clone 24) VH: LVESGGGVVQPGKSLRLSCVASGFTFSSYGMHWVRQAPGKGLEWVAVMSFDGKTKYYADSVKGRFTISRDNPKNTLYLQMNSLRSEDTAVYYCAKGGAAAAVFDSWGQGILLTVSS VL: MTQSPNSLAVSLGGRATINCKTSQSILYRSNNKNYLAWYQHKSGQPPKLLIYWASTRESGVPDRFSGSGSRTDFTLTISGLQAEDVAVYYCQQYYNPPWTFGQGTKVEIK ?
24

Data request, read-out AtheNA signal, for Ab7957/293i (antibody, IgG1, V domains shown, Recombinant human antibody with IgG1 heavy chain backbone and kappa light chain constant; they begin at LVESGGG and MTQSP; also called Ab7957i; mAb 7957) VH: LVESGGGVVPPGKSLRLSCAASGFTFSLYGIHWVRQAPGKGLEWVAVISYDGNTKYYTDSVKGRFTISRDNAKNTIYLQMNSLRLDDTAVYYCAKGAANSATFDFWGRGTMVTVSS VL: MTQSPDSLTLSLGERATINCRSSRTVLYRSNNKNYLAWYQHKPGQPPKLLMSWASTRETGVPDRFSGSGSGTHFTLTITSLQPEDVAVYYCQQYYSPPWTFGQGTKVEIR
9

// query AtheNA signal value for entry Ab7968 (antibody, IgG1, V domains shown, Recombinant human antibody with IgG1 heavy chain backbone and kappa light chain constant; they begin at LVESGGG and MTQSP; also called mAb 7968; mAb7968) VH: LVESGGGVVQPGRSLRLSCAASGFTFSRYGMHWVRQAPGKGLEWVAVMSYDGSTKYYADSVKGRFAISRDNPKNTLFLQMNSLRPDDTAVYYCAKGGAAAAVMDVWGKGTTVTVSS VL: MTQSPDSLTVSLGERATISCKSSQRLLYSSNNKNYLAWYQQKPGQPPKLLMYWASTRESGVPDRFSGSGSGTDFSLTISSLQAEDVAVYYCQQYYNPPWTFGQGTKVEVK
4

Data provenance is patent US20190315842A1.
